- Tgt: HLA-B*45:01
- Method Notes: IEDB peptide-MHC binding, purified MHC/competitive/radioactivity; filed as Kd, often an IC50 or EC50 that approximates it; bounds were set here for any values at or beyond the usual limits of such assays
- Condition Details: source organism: SARS coronavirus Tor2
// reported Kd per item
// note: answer is a bare numeric in nM

Consider the following illustrative entries.
- Seq: "AESHMDADLA"
  Experimental Result: 8.31
- Seq: "NEYRQYLDA"
  Experimental Result: 98.8
- Seq: "FELCDNPFF"
  Experimental Result: 17700
- Seq: "LEGYAFEHIV"
  Experimental Result: 316

*Q* Query: Kd; subject: GEVLSLDKL
*A* 17300

*Q* Same lookup for SDRVVFVLWA , please.
*A* 1950

*Q* Same lookup for GEENFSSRMY , please.
*A* 3210

*Q* Same lookup for KEQLQLLMPL , please.
*A* 121

*Q* Same lookup for LEGSISYSEL , please.
*A* 2210

*Q* Same lookup for LEGSVRVVT , please.
*A* 59.1

*Q* Same lookup for FEYISDAFSL , please.
*A* 6380

====

- Tgt: HLA-B*57:01
- Method Notes: IEDB peptide-MHC binding, purified MHC/competitive/radioactivity; filed as Kd, often an IC50 or EC50 that approximates it; bounds were set here for any values at or beyond the usual limits of such assays
- Condition Details: source organism: Dengue virus 4 Philippines/H241/1956
Measure: pKd
// returns pKd (minus log10 of molar concentration), number only

- Seq: "NTSMAMTCIA"
  Experimental Result: 4.93

From here, focus on the item given below.
*Q* Query: pKd; subject: RSWNTGFDW
*A* 7.86

====

- Tgt: HLA-A*03:01
- Method Notes: IEDB peptide-MHC binding, purified MHC/direct/fluorescence; filed as Kd, often an IC50 or EC50 that approximates it; bounds were set here for any values at or beyond the usual limits of such assays
- Condition Details: source organism: Collimonas fungivorans
Measure: Kd (µM)
// note: answer is a bare numeric in µM

*Q* Query: Kd; subject: AYSPFAFKK
*A* 2.28

====

- Tgt: HLA-B*48:01
- Method Notes: IEDB peptide-MHC binding, purified MHC/direct/fluorescence; filed as Kd, often an IC50 or EC50 that approximates it; bounds were set here for any values at or beyond the usual limits of such assays
- Condition Details: source organism: Escherichia coli O157:H7
pKd: −log10 of the molar value.
Measure: pKd

*Q* Query: pKd; subject: YQAFRTKVH
*A* ≤ 4.70

====

- Tgt: HLA-B*51:01
- Method Notes: IEDB peptide-MHC binding, purified MHC/competitive/fluorescence; bounds were set here for any values at or beyond the usual limits of such assays
- Condition Details: source organism: Homo sapiens
pIC50: −log10 of the molar value.
// reported pIC50 per item

- Seq: "KVADVDLAVPV"
  Tgt: "HLA-B*51:01"
  pIC50: "≤ 4.70"

From here, focus on the item given below.
*Q* Query: pIC50; subject: GSSDFQVHFLK
*A* ≤ 4.70

====

- Tgt: HLA-A*26:01
- Method Notes: IEDB peptide-MHC binding, purified MHC/competitive/radioactivity; filed as Kd, often an IC50 or EC50 that approximates it; bounds were set here for any values at or beyond the usual limits of such assays
- Condition Details: source organism: SARS coronavirus Tor2
Measure: pKd
// returns pKd (minus log10 of molar concentration), number only

*Q* Request: pKd, test system HLA-A*26:01, entry LVAEMDGIQY
*A* 6.46
